# System: HCT-116
# run-description: Antiproliferative activity against human HCT-116 cells overexpressing MDM2 assessed as cell growth inhibition incubated at 10 uM for 72 hrs by CCK-8 assay relative to control
# Format: functional
value-type: inhibition at 10 µM (%)
Express it in %; write the number only.

See these solved cases before continuing.
{"molecule": "O=C(c1ccc(Cl)cc1)C(Cc1ccc(Cl)cc1)C(=O)c1cc(F)ccc1F (centres undefined)", "inhibition at 10 µM [%]": 5.64}
{"molecule": "Cc1cccc(CC(C(=O)c2ccc(Cl)cc2)C(=O)c2cc(F)ccc2F)c1 (centres undefined)", "inhibition at 10 µM [%]": 33.7}
{"molecule": "O=C(c1ccc(Cl)cc1)C(Cc1ccsc1)C(=O)c1cc(F)ccc1F (centres undefined)", "inhibition at 10 µM [%]": 31.8}

Next item in the queue.
So what's the measured inhibition at 10 µM for this one? O=C(c1ccc(Cl)cc1)C(Cc1cc(Cl)cc(Cl)c1)C(=O)c1cc(F)ccc1F (centres undefined)
33.5
